Measured % Mortality after of individual entries
Tested on: Musca domestica, susceptible strain WHO(N)
TEST PROTOCOL: Topical insecticide application to houseflies
Assay type: in vivo
STUDY CONDITIONS: 1 h, 0.5 μl per fly, % a.i. conc. in acetone, Table 95
ASSAY METRIC: % Mortality after

[
  {
    "COMPOUND": "CC1(C)C(C=C(Br)Br)C1C(=O)OC(C#N)c1cccc(Oc2ccccc2)c1 (stereo not shown)",
    "ASSAY RESULT": "70%"
  },
  {
    "COMPOUND": "CC1(C)[C@H](C(=O)O[C@H](C#N)c2cccc(Oc3ccccc3)c2)[C@@H]1C=C(Br)Br [0.0000256% DTM]",
    "ASSAY RESULT": "30%"
  },
  {
    "COMPOUND": "CC1(C)[C@H](C(=O)O[C@H](C#N)c2cccc(Oc3ccccc3)c2)[C@@H]1C=C(Br)Br [0.00064% DTM]",
    "ASSAY RESULT": "100%"
  },
  {
    "COMPOUND": "Cc1ccc(O)c(-n2nc3ccccc3n2)c1",
    "ASSAY RESULT": "0%"
  }
]

---

Test system: tropical house mosquito Culex quinquefasciatus (adults, 3 days old)
TEST PROTOCOL: Efficacy of formulations on surfaces (glazed/unglazed tiles, plywood), ten 3 day old mosquitoes, 3 min exposure
Type: in vivo
STUDY CONDITIONS: 30′; in acetone on glazed tiles; Table 84
ASSAY METRIC: % KD and Mortality (%)

[
  {
    "STRUCTURE SMILES STRING": "CC1(C)CC(OC(=O)CCCCCCCCC(=O)OC2CC(C)(C)NC(C)(C)C2)CC(C)(C)N1",
    "ASSAY SYSTEM": "tropical house mosquito Culex quinquefasciatus (adults, 3 days old)",
    "ASSAY RESULT": 0
  },
  {
    "STRUCTURE SMILES STRING": "O=C(CCCCCCCCC(=O)OCc1ccccc1)OCc1ccccc1",
    "ASSAY SYSTEM": "tropical house mosquito Culex quinquefasciatus (adults, 3 days old)",
    "ASSAY RESULT": 0
  },
  {
    "STRUCTURE SMILES STRING": "CC1(C)CC(O)CC(C)(C)N1[O]",
    "ASSAY SYSTEM": "tropical house mosquito Culex quinquefasciatus (adults, 3 days old)",
    "ASSAY RESULT": 0
  },
  {
    "STRUCTURE SMILES STRING": "CCCCCCCCON1C(C)(C)CC(OC(=O)CCCCCCCCC(=O)OC2CC(C)(C)N(OCCCCCCCC)C(C)(C)C2)CC1(C)C",
    "ASSAY SYSTEM": "tropical house mosquito Culex quinquefasciatus (adults, 3 days old)",
    "ASSAY RESULT": 3
  },
  {
    "STRUCTURE SMILES STRING": "O=C(O)CCCCCCCCC(=O)O",
    "ASSAY SYSTEM": "tropical house mosquito Culex quinquefasciatus (adults, 3 days old)",
    "ASSAY RESULT": 3
  }
]

---

Tested on: Aedes aegypti mosquito
TEST PROTOCOL: USDA Petri Dish Method, 3 min exposure to dipped fiberglass window screen
Format: in vivo
STUDY CONDITIONS: 24 hr; Table 39, permethrin without adjuvant (Permanone 40), dipped screen, 3 min exposure
# Average % Knockdown & Mortality after 24 hr per entry
ASSAY METRIC: Average % Knockdown & Mortality after 24 hr (%)

[
  {
    "MOLECULE": "CC1(C)C(C=C(Cl)Cl)C1C(=O)OCc1cccc(Oc2ccccc2)c1 (centres unmarked) [Permethrin (0.5%)]",
    "ASSAY RESULT": 9
  },
  {
    "MOLECULE": "CC1(C)C(C=C(Cl)Cl)C1C(=O)OCc1cccc(Oc2ccccc2)c1 (centres unmarked) [Permethrin (1.75%)]",
    "ASSAY RESULT": 100
  },
  {
    "MOLECULE": "CC1(C)C(C=C(Cl)Cl)C1C(=O)OCc1cccc(Oc2ccccc2)c1 (centres unmarked) [Permethrin (0.1%)]",
    "ASSAY RESULT": 5
  },
  {
    "MOLECULE": "CC1(C)C(C=C(Cl)Cl)C1C(=O)OCc1cccc(Oc2ccccc2)c1 (centres unmarked) [Permethrin (1.0%)]",
    "ASSAY RESULT": 34
  },
  {
    "MOLECULE": "CC1(C)C(C=C(Cl)Cl)C1C(=O)OCc1cccc(Oc2ccccc2)c1 (centres unmarked) [Permethrin (1.5%)]",
    "ASSAY RESULT": 16
  },
  {
    "MOLECULE": "CC1(C)C(C=C(Cl)Cl)C1C(=O)OCc1cccc(Oc2ccccc2)c1 (centres unmarked) [Permethrin (2.5%)]",
    "ASSAY RESULT": 100
  },
  {
    "MOLECULE": "CC1(C)C(C=C(Cl)Cl)C1C(=O)OCc1cccc(Oc2ccccc2)c1 (centres unmarked) [Permethrin (1.25%)]",
    "ASSAY RESULT": 82
  },
  {
    "MOLECULE": "CC1(C)C(C=C(Cl)Cl)C1C(=O)OCc1cccc(Oc2ccccc2)c1 (centres unmarked) [Permethrin (5%)]",
    "ASSAY RESULT": 100
  }
]

---

System: Aedes aegypti mosquito
TEST PROTOCOL: USDA Petri Dish Method, 3 min exposure to dipped fiberglass window screen
Assay type: in vivo
STUDY CONDITIONS: 9 min; Table 39, permethrin without adjuvant (Permanone 40), dipped screen, 3 min exposure
ASSAY METRIC: Average % Knockdown & Mortality after 9 min (%)

[
  {
    "COMPOUND": "CC1(C)C(C=C(Cl)Cl)C1C(=O)OCc1cccc(Oc2ccccc2)c1 (centres unmarked) [Permethrin (2.5%)]",
    "ASSAY RESULT": 100
  },
  {
    "COMPOUND": "CC1(C)C(C=C(Cl)Cl)C1C(=O)OCc1cccc(Oc2ccccc2)c1 (centres unmarked) [Permethrin (0.1%)]",
    "ASSAY RESULT": 0
  },
  {
    "COMPOUND": "CC1(C)C(C=C(Cl)Cl)C1C(=O)OCc1cccc(Oc2ccccc2)c1 (centres unmarked) [Permethrin (5%)]",
    "ASSAY RESULT": 100
  },
  {
    "COMPOUND": "CC1(C)C(C=C(Cl)Cl)C1C(=O)OCc1cccc(Oc2ccccc2)c1 (centres unmarked) [Permethrin (0.5%)]",
    "ASSAY RESULT": 0
  },
  {
    "COMPOUND": "CC1(C)C(C=C(Cl)Cl)C1C(=O)OCc1cccc(Oc2ccccc2)c1 (centres unmarked) [Permethrin (1.5%)]",
    "ASSAY RESULT": 0
  },
  {
    "COMPOUND": "CC1(C)C(C=C(Cl)Cl)C1C(=O)OCc1cccc(Oc2ccccc2)c1 (centres unmarked) [Permethrin (1.75%)]",
    "ASSAY RESULT": 95
  },
  {
    "COMPOUND": "CC1(C)C(C=C(Cl)Cl)C1C(=O)OCc1cccc(Oc2ccccc2)c1 (centres unmarked) [Permethrin (1.25%)]",
    "ASSAY RESULT": 71
  },
  {
    "COMPOUND": "CC1(C)C(C=C(Cl)Cl)C1C(=O)OCc1cccc(Oc2ccccc2)c1 (centres unmarked) [Permethrin (1.0%)]",
    "ASSAY RESULT": 2
  }
]

---

Entries and their % knock down after
Test system: Musca domestica, susceptible strain WHO(N)
TEST PROTOCOL: Contact efficacy against houseflies on filter papers in glass dishes
Assay type: in vivo
STUDY CONDITIONS: 1 h; % a.i. conc. in acetone on filter papers; Table 97
Method: Male Musca domestica, susceptible strain WHO(N), were used. A solution of the active ingredient in acetone was prepared. A concentration row was made. After evaporation of the acetone (30′), the dishes were closed by a glass lid and transferred into the test room. One day later twenty flies, anaesthetized with CO2, are counted into each dish. At regular intervals, knock down was recorded (cumulatively). Each test consisted of one replicate. […]

[
  {
    "COMPOUND": "CC1(C)[C@H](C(=O)O[C@H](C#N)c2cccc(Oc3ccccc3)c2)[C@@H]1C=C(Br)Br [0.000064% DTM]",
    "ASSAY SYSTEM": "Musca domestica, susceptible strain WHO(N)",
    "% knock down after [%]": 0
  },
  {
    "COMPOUND": "CC1(C)C(C=C(Br)Br)C1C(=O)OC(C#N)c1cccc(Oc2ccccc2)c1 (centres unmarked)",
    "ASSAY SYSTEM": "Musca domestica, susceptible strain WHO(N)",
    "% knock down after [%]": 70
  },
  {
    "COMPOUND": "Cc1ccc(O)c(-n2nc3ccccc3n2)c1",
    "ASSAY SYSTEM": "Musca domestica, susceptible strain WHO(N)",
    "% knock down after [%]": 0
  },
  {
    "COMPOUND": "CC1(C)[C@H](C(=O)O[C@H](C#N)c2cccc(Oc3ccccc3)c2)[C@@H]1C=C(Br)Br [0.0000128% DTM]",
    "ASSAY SYSTEM": "Musca domestica, susceptible strain WHO(N)",
    "% knock down after [%]": 0
  },
  {
    "COMPOUND": "CC1(C)[C@H](C(=O)O[C@H](C#N)c2cccc(Oc3ccccc3)c2)[C@@H]1C=C(Br)Br [0.00032% DTM]",
    "ASSAY SYSTEM": "Musca domestica, susceptible strain WHO(N)",
    "% knock down after [%]": 5
  }
]

// data source = patent US9028856B2
